Assignment: determine reported MIC for the given molecules.
Test system: Enterococcus faecalis
Assay: Antibacterial activity against Enterococcus faecalis 29212 assessed as inhibition of bacterial growth measured after 24 hrs
Settings: Enterococcus faecalis, 29212, 24 h
Your answer is read as µM, so omit the unit and give the number.

Notebook: pull reported MIC for Enterococcus faecalis, entry CC(=O)NCC1CN(c2ccc(-c3ccc(COC(=O)c4ccccc4)cc3)c(F)c2)C(=O)O1 (stereo not drawn) 3.13

Enter reported MIC observed with Enterococcus faecalis for CC(=O)NCC1CN(c2ccc(-c3ccc(COC(=O)c4ccc(B(O)O)cc4)cc3)c(F)c2)C(=O)O1 (stereo not drawn) 3.13

Lab note: need MIC for CC(=O)NC[C@H]1CN(c2ccc(-c3ccc(CNC(=O)c4ccc(B(O)O)cc4)cc3)c(F)c2)C(=O)O1 on Enterococcus faecalis, anyone have it? 0.39

Please provide the recorded MIC for CC(=O)NC[C@H]1CN(c2ccc(N3CCOCC3)c(F)c2)C(=O)O1 [LINEZOLID] , tested on Enterococcus faecalis. 6.25

Value wanted: MIC (Enterococcus faecalis) of entry CC(=O)NCC1CN(c2ccc(-c3ccc(COC(=O)c4ccc(B(O)O)cc4Cl)cc3)c(F)c2)C(=O)O1 (stereo not drawn) 3.13

Form: Entry = CC(=O)NCC1CN(c2ccc(-c3ccc(COC(=O)c4ccc(B(O)O)cc4F)cc3)c(F)c2)C(=O)O1 (stereo not drawn) | System = Enterococcus faecalis | MIC = ____ 1.56

For Enterococcus faecalis, provide MIC of CC(=O)NCC1CN(c2ccc(-c3ccc(COC(=O)c4ccc(B(O)O)c(F)c4)cc3)c(F)c2)C(=O)O1 (stereo not drawn) please. 1.56
